assay.comment: Solubility of the compound in pH 6 PBS buffer
Type: physicochemical
endpoint.label: solubility (µg/mL)
Report the figure in µg/mL without appending any unit label.

Give its solubility value. Item: `C[C@@H](Nc1nc2c(cnn2C2CCCC2)c(=O)[nH]1)C(=O)N1CC2(CC(F)C2)C1`
68.5

* * *

assay.comment: Microsomal stability in rat liver microsomes assessed as terminal half life
Format: ADME, Microsome
Threshold 10 min. half-life below it: criterion met. half-life at it or above: criterion not met.

Consider the worked cases shown below.
C[C@@H](Nc1nc2c(cnn2C2CCCC2)c(=O)[nH]1)C(=O)N1CC2(CC(F)C2)C1; criterion not met
C[C@@H](Nc1nc2c(cnn2C2CCCC2)c(=O)[nH]1)C(=O)N1CC2(CC(Cl)C2)C1; criterion not met

Threshold test, half-life < 10 min: `C[C@@H](Nc1nc2c(cnn2C2CCCC2)c(=O)[nH]1)C(=O)N1CCSCC1`
criterion met
